Ref: ChEMBL document CHEMBL5260805

# procedure.details: Inhibition of bacterial peptide deformylase
# Parameters: species or system Bacteria
pIC50: −log10 of the molar value.

record.smiles	pIC50
N#Cc1ccccc1-c1ccc(CN2C(=O)S/C(=C\c3c(Cl)cccc3Cl)C2=O)cc1	3.88

----------
# tested.system: Peroxisome proliferator-activated receptor gamma (Homo sapiens, UniProt P37231)
# Sequence (P37231 whole entry): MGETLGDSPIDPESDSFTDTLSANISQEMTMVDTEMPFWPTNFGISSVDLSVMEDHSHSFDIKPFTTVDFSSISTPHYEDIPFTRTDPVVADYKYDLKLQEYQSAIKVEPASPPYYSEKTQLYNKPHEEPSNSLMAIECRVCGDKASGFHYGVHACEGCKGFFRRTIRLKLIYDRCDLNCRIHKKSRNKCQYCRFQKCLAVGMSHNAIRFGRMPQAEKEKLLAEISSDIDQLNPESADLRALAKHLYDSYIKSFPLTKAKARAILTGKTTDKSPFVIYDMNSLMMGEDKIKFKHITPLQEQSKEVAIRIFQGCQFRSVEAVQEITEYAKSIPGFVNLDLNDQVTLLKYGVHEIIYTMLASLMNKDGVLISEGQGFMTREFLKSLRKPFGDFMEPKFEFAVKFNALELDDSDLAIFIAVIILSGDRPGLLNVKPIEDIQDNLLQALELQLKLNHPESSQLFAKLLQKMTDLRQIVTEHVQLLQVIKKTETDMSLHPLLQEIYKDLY
# procedure.details: Agonist activity at human PPARgamma transfected in HEK293 cells assessed increase in luciferase activity incubated for 24 hrs

compound	EC50, nM
COC(=O)/C(=C\c1cc(OC)cc(OC)c1)c1ccc(Oc2ccc(CC3SC(=O)NC3=O)cc2)cc1 (stereo unspecified)	284
